Data credit: paper PMC6859858

Molecular target: CPSF-160;WDR33;CPSF-30;Fip1 (human;human;human;human, UniProt Q10570;Q9C0J8;O95639;Q6UN15 1-1443;1-425;1-269;159-200, |||)
Sequence (Q10570 whole entry, chain 1 of 4): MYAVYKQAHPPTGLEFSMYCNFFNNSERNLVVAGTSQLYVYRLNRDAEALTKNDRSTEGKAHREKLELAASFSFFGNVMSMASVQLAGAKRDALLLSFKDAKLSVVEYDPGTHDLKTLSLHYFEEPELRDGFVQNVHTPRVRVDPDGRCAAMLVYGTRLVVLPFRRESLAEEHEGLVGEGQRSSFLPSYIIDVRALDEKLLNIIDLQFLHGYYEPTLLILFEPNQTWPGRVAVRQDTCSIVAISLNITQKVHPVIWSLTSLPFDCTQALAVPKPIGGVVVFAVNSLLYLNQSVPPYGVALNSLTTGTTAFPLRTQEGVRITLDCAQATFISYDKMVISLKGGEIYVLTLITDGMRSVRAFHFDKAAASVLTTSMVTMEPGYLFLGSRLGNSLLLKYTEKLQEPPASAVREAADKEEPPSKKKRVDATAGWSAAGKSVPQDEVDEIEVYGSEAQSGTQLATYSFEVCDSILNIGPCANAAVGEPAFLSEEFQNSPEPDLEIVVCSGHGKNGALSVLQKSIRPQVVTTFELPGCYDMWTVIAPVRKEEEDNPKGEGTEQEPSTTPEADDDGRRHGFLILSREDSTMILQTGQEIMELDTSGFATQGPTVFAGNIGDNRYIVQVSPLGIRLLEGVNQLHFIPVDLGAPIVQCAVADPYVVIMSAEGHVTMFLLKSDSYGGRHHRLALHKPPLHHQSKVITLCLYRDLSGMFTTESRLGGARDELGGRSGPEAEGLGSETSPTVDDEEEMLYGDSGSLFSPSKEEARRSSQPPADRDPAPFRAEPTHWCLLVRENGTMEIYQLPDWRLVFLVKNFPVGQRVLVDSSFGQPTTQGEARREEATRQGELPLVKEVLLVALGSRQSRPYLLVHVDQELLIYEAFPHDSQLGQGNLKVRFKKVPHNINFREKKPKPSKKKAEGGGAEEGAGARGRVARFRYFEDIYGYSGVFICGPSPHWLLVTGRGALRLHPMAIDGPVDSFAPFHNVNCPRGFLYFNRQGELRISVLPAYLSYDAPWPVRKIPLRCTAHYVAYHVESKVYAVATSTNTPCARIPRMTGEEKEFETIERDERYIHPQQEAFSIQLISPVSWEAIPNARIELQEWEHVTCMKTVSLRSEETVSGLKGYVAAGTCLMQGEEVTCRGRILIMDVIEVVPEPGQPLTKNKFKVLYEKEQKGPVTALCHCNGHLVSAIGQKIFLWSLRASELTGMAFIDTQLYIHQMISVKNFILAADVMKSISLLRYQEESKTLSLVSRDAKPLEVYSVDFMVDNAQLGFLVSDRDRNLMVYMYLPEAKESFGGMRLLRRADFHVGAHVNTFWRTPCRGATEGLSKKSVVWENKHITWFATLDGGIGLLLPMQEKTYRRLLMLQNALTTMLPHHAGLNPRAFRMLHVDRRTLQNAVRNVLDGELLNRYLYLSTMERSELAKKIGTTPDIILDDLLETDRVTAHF
Sequence (Q9C0J8 1-425, chain 2 of 4): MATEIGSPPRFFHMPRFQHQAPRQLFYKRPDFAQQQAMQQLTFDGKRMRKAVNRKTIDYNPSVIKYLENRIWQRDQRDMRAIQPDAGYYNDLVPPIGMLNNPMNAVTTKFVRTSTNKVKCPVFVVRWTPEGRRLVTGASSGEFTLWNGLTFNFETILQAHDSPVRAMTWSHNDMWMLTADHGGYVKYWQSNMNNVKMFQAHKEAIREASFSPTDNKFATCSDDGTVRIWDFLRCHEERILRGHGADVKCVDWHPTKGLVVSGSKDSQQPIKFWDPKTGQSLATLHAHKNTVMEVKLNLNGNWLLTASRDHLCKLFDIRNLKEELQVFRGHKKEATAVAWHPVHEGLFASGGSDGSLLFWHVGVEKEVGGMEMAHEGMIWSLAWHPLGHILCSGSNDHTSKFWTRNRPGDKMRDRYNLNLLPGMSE
Sequence (O95639 whole entry, chain 3 of 4): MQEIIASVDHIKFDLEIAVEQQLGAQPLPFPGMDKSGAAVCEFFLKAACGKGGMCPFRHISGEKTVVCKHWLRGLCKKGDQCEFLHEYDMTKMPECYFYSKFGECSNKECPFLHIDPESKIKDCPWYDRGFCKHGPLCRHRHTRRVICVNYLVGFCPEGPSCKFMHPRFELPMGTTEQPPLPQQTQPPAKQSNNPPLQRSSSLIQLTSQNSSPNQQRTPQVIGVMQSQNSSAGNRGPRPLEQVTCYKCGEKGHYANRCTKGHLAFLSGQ
Sequence (Q6UN15 159-200, chain 4 of 4): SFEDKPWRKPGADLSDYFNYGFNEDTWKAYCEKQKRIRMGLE
Experiment: fluorescence polarization
readoutType: Kd (nM)
Supply the numeric figure in nM, leaving out any unit text.

Exercise: What does the record list as Kd for AAUAAA (ssRNA, 3' phosphate linking the FAM) [6-mer AAUAAA, FAM] ?
Key: 8.05

Exercise: Input CAAUAAACAAC (ssRNA) [11-mer AAUAAA PAS, FAM]
Key: 0.32

Exercise: Input AACCUCCAAUAAACAAC (ssRNA) [17-mer AAUAAA PAS]
Key: 0.28
